Test system: A549/ATCC NSCLC
Experiment: NCI-60 one-dose screen, 48 h (100 = growth as untreated, 0 = no growth, -100 = all killed)
Conditions: 10 µM
The panel holds about 83,000 compounds, 20% with a hit somewhere; the sample as a whole holds those more often. Activity calls are given as the source filed them. The calls were made as follows: active = growth percent below 10; inactive = the rest.
measuredAttribute: growth

compound: COC1=C[C@@]23CCC(=O)N2CCc2cc4c(cc2[C@H]3[C@H]1OC(=O)C(C)(C)O)OCO4
experimentalTarget: A549/ATCC NSCLC
measuredAttribute: growth
experimentalValue: 102% (inactive)
//
compound: COc1ccc(C(=O)Nc2sc3c(c2C#N)CCC(=O)C3)cc1C(F)(F)F
experimentalTarget: A549/ATCC NSCLC
measuredAttribute: growth
experimentalValue: 25.5% (inactive)
//
compound: CCN1CCN(c2ccc(NC(=O)Nc3ccc(-c4cc(C(=O)NC(C)C)c5ncccc5n4)cc3)cc2C(F)(F)F)CC1
experimentalTarget: A549/ATCC NSCLC
measuredAttribute: growth
experimentalValue: -87.6% (active)

I'd like to know its growth. The compound in question is CS(=O)(=O)Nc1ccc(-c2ccc3c(c2)ncn3-c2ccc(NC(=O)Nc3ccc(Cl)c(C(F)(F)F)c3)cc2)cc1
-75.1% (active)

Entry under review: COC(=O)C[C@](O)(CCCC(C)(C)O)C(=O)O[C@H]1C(OC)=C[C@@]23CCC(=O)N2CCc2cc4c(cc2[C@@H]13)OCO4 . Reported growth?
94.9% (inactive)

GET /values?readout=growth&item= CCCCSc1nc(Nc2ccc(/C(C)=N/NC(N)=S)cc2)c(C#N)c(-c2ccc(OC)cc2)n1
47.4% (inactive)

Consider the compound O=C(NC(=S)N1CCN(c2ncnc3c2cnn3-c2ccccc2)CC1)c1ccc(Cl)cc1 and give its measured growth.
54.3% (inactive)

Query (compound): COc1cccc2nc(Nc3ccc(F)c(NC(=O)c4ccc(CN5CCN(C)CC5)c(C(F)(F)F)c4)c3)ccc12 ; field requested: growth
18.5% (inactive)

What value of measured growth is listed for O=C(CS(=O)(=O)c1oc(-c2ccc(Cl)cc2)nc1S(=O)(=O)c1ccc(Cl)cc1)N1CCOCC1 ?
83.7% (inactive)

Quick one: growth for O=[N+]([O-])c1ccc(-c2nc(-c3ccccc3)c(-c3ccccc3)n2-c2ccc(S(=O)(=O)Nc3ncccn3)cc2)cc1 ?
60% (inactive)

Given CC(=O)OC[C@@]1(C)C2CC[C@]3(C)C(CC=C4C5CC(C)(C)CC[C@]5(C(=O)Nc5ccccc5)CC[C@]43C)[C@@]2(C)C[C@@H](OC(C)=O)[C@@H]1OC(C)=O (some centres not stated) , state its recorded growth.
39.6% (inactive)

# lookup: growth of CN1C(=O)/C(=C/c2nccs2)SC1=S
98.5% (inactive)

Value lookup for growth; key = Cc1ccc(-c2nc3ccc(C(=O)N=Nc4c(O)[nH]c5ccc([N+](=O)[O-])cc45)cc3[nH]2)cc1
98% (inactive)

Which growth value is on record for CCOC(=O)c1c(CSc2ccccc2)n(C)c2cc(CN(C)C)c(O)c(CN(C)C)c12 ?
49.6% (inactive)

What value of measured growth is listed for Cc1ccc(C(=O)NNC(=O)CSc2nc3ccccc3c(=O)[nH]2)cc1 ?
111% (inactive)

Quick one: growth of Clc1cccc(N/N=C/c2c[nH]c3ccccc23)n1 ?
56.4% (inactive)

Reported growth for Cn1cc(-c2cc(N)n3nc(-c4c[nH]c5ccc(Br)cc45)cc3n2)c2cccnc21 : what is it?
-80% (active)
